attribute measured: pKd
Just the number, please; pKd means minus log10 of the concentration in mol/L.

Ask: Give recorded pKd with Serotonin 4 (5-HT4) receptor (Sus scrofa, UniProt Q6Q253) for the following compound: CN1CCC(COC(=O)c2cc(Cl)c(N)c3c2OCCO3)CC1
Sequence (Q6Q253 whole entry): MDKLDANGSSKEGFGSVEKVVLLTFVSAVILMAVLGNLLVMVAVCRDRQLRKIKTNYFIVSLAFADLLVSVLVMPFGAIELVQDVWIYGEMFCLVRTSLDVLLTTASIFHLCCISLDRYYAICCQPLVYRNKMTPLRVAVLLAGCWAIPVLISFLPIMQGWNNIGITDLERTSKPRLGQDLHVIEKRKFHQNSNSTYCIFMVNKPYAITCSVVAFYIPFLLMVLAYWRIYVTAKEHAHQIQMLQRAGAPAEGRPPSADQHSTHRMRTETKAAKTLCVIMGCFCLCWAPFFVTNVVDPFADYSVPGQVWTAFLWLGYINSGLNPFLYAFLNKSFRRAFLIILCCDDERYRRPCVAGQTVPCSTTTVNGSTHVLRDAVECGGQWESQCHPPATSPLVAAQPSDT
Reply: 10.10
